B1: ZNF649 (parent)
chain: MTKAQESLTLEDVAVDFTWEEWQF

Variants of: B1
Assay: protein stability index of a GFP-peptide fusion (GPS, HEK-293T) (PSI 1-6); higher = more stable;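 note: lentivirally expressed fusions sorted by FACS into six bins by GFP to DsRed ratio, PSI derived from sequencing read proportions per bin multiplied by bin number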
Conditions: c terminus: a fixed tail appended
endpoint: protein stability index
Respond numerically, and do not add a unit to the figure.

For orientation, consider the following solved cases.
-- ask Would you kindly share the measured protein stability index for `V13T` ?
-- reply 4.11

-- ask Would you kindly share the measured protein stability index for `E6N` ?
-- reply 2.88

-- ask Would you kindly share the measured protein stability index for `E11Y` ?
-- reply 1.28

-- ask Would you kindly share the measured protein stability index for `T18F` ?
-- reply 1.79

-- ask Would you kindly share the measured protein stability index for `A4H` ?
-- reply 3.48

-- ask Would you kindly share the measured protein stability index for `E6K` ?
-- reply 3.02

-- ask Would you kindly share the measured protein stability index for `V13D` ?
-- reply 4.11

-- ask Would you kindly share the measured protein stability index for `D12T` ?
-- reply 2.2

Shift focus to the following entry.
-- ask Would you kindly share the measured protein stability index for `W22P` ?
-- reply 4.4
